System: Solanum
TEST_NAME: Pre-emergence test/greenhouse
Format: in vivo
COND: 500 g ai/ha, after three weeks
Give % damage Solanum for every item shown.
State the value, then name its unit.

Recorded % damage Solanum for C#CC(C)Oc1cc(-n2nc(C)ccc2=O)c(F)cc1C#N (stereo not shown) on Solanum was 100%

Noted % damage Solanum for Nc1cnn(-c2ccccc2)c(=O)c1Cl [(A), reference compound] , tested on Solanum: 40%

Lab note: compound CCS(=O)(=O)Nc1cc(-n2ncc(NC)c(Cl)c2=O)c(F)cc1C#N tested on Solanum; recorded % damage Solanum was 60%

// compound CCS(=O)(=O)Nc1cc(-n2ncc(C)cc2=O)c(Cl)cc1Cl , assay Solanum, % damage Solanum value: 90%

Entry C#CC(CC)Oc1cc(-n2nc(C)ccc2=O)c(F)cc1C#N (stereo not shown) : % damage Solanum on Solanum = 100%

// assay Solanum, entry Cc1cnn(-c2ccccc2)c(=O)c1Br [(B), reference compound] , % damage Solanum value = 50%

% damage Solanum for Solanum with input CCS(=O)(=O)Nc1cc(-n2nc(C)ccc2=O)c(F)cc1C#N equals 95%

* * *

System: Veronica
TEST_NAME: Post-emergence test/greenhouse
Type: in vivo
COND: 60 g ai/ha, after three weeks
MEASURED_PROPERTY: % damage Veronica (%)
Reply with just the number (in %).

Data point: C#CC(CC)Oc1cc(-n2ncc(C)cc2=O)c(F)cc1C#N (stereo not shown) ; % damage Veronica = 95

Consider C#CC(C)Oc1cc(-n2nc(C)ccc2=O)c(F)cc1C#N (stereo not shown) . Its measured % damage Veronica is 90

Form field % damage Veronica, entry CCS(=O)(=O)Nc1cc(-n2ncc(C)cc2=O)c(F)cc1C#N : 90

Memo: C#CC(C)Oc1cc(-n2ncc(C)cc2=O)c(F)cc1C#N (stereo not shown) , reported % damage Veronica: 100

* * *

System: Abutilon
TEST_NAME: Pre-emergence test/greenhouse
Assay type: in vivo
COND: 500 g ai/ha, after three weeks
Please provide measured % damage Abutilon for the entries that follow.
Hi! Could you send only the number? It should be in %, unit omitted.

Record Nc1cnn(-c2ccccc2)c(=O)c1Cl [(A), reference compound] . Reported % damage Abutilon: 20

# % damage Abutilon of CCS(=O)(=O)Nc1cc(-n2ncc(NC)c(Cl)c2=O)c(F)cc1C#N = 100

% damage Abutilon recorded for this compound, C#CC(CC)Oc1cc(-n2nc(C)ccc2=O)c(F)cc1C#N (stereo not shown) , is 100

// % damage Abutilon lookup, compound = CCS(=O)(=O)Nc1cc(-n2nc(C)ccc2=O)c(F)cc1C#N , result: 100

Sure, the documented % damage Abutilon for CCS(=O)(=O)Nc1cc(-n2ncc(C)cc2=O)c(Cl)cc1Cl is 100

Cc1cnn(-c2ccccc2)c(=O)c1Br [(B), reference compound] yielded % damage Abutilon of 0

// sample C#CC(C)Oc1cc(-n2nc(C)ccc2=O)c(F)cc1C#N (stereo not shown) , its % damage Abutilon was 100

* * *

Please respond with reported % damage Galinsoga for every item in the list.
Tested on: Galinsoga
TEST_NAME: Pre-emergence test/greenhouse
Format: in vivo
COND: 250 g ai/ha, after three weeks
Give just the number in %; leave the unit off.

Record summary for C#CCOc1cc(-n2nc(C)ccc2=O)c(F)cc1C#N : reported % damage Galinsoga = 95

According to the records, this compound C#CC(C)Oc1cc(-n2ncc(C)cc2=O)c(F)cc1C#N (stereo not drawn) displays % damage Galinsoga of 100

The reported value for C#CC(CC)Oc1cc(-n2ncc(C)cc2=O)c(F)cc1C#N (stereo not drawn) in terms of % damage Galinsoga is 100

Sure, the documented % damage Galinsoga for CCS(=O)(=O)Nc1cc(-n2ncc(C)cc2=O)c(F)cc1C#N is 80

Lab note: measured % damage Galinsoga of Cc1cnn(-c2cc(F)c(C#N)cc2F)c(=O)c1 was 100

So, Cc1cnn(-c2cc(OC(C)C)c(C#N)cc2F)c(=O)c1 ? Its % damage Galinsoga was 90

* * *

Test system: Solanum
TEST_NAME: Pre-emergence test/greenhouse
Assay type: in vivo
COND: 250 g ai/ha, after three weeks
MEASURED_PROPERTY: % damage Solanum (%)
Write down the numeric answer in % and omit the unit.

Value of % damage Solanum reported for the molecule C#CC(C)Oc1cc(-n2ncc(C)cc2=O)c(F)cc1C#N (stereo not drawn) [Example 8] is 100

// field: % damage Solanum; key: C#CCOc1cc(-n2nc(C)ccc2=O)c(F)cc1C#N [Example 7] ; value = 100

Reported % damage Solanum ( Cc1cnn(-c2cc(OC(C)C)c(C#N)cc2F)c(=O)c1 [Example 36] ) = 100

% damage Solanum recorded for this molecule, CCS(=O)(=O)Nc1cc(-n2ncc(C)cc2=O)c(F)cc1C#N [Example 31] , is 100

For reference, reported % damage Solanum for Cc1cnn(-c2cc(F)c(C#N)cc2F)c(=O)c1 [Example 3] stands at 90

The molecule listed as C#CC(CC)Oc1cc(-n2ncc(C)cc2=O)c(F)cc1C#N (stereo not drawn) [Example 35] has a reported % damage Solanum of 100

* * *

Test system: Sunflower
TEST_NAME: Pre-emergence test/greenhouse
Format: in vivo
COND: 500 g ai/ha, after three weeks
MEASURED_PROPERTY: % damage Sunflower (%)
Supply the numeric figure in %, leaving out any unit text.

Lookup result for CCS(=O)(=O)Nc1cc(-n2ncc(C)cc2=O)c(Cl)cc1Cl [Example 34] ; measured % damage Sunflower: 20

% damage Sunflower reported for this compound Cc1cnn(-c2ccccc2)c(=O)c1Br [(B), reference compound] : 0

Item: CCS(=O)(=O)Nc1cc(-n2nc(C)ccc2=O)c(F)cc1C#N [Example 15] | % damage Sunflower: 0

Form: compound = C#CC(CC)Oc1cc(-n2nc(C)ccc2=O)c(F)cc1C#N (stereo not drawn) [Example 29] ; % damage Sunflower = 0

Per the record, Nc1cnn(-c2ccccc2)c(=O)c1Cl [(A), reference compound] has % damage Sunflower of 100

Per the record, C#CC(C)Oc1cc(-n2nc(C)ccc2=O)c(F)cc1C#N (stereo not drawn) [Example 16] has % damage Sunflower of 20

* * *

Test system: Abutilon
TEST_NAME: Pre-emergence test/greenhouse
Format: in vivo
COND: application rate between 125 and 500 g/ha, span over the named compounds
Hi there, I'd appreciate the recorded activity against Abutilon (% damage) for every entry that follows.

Consider C#CC(CC)Oc1cc(-n2ncc(C)cc2=O)c(F)cc1C#N (stereo not drawn) . Its measured activity against Abutilon (% damage) is 100%

The compound identified as C#CC(C)Oc1cc(-n2ncc(C)cc2=O)c(F)cc1C#N (stereo not drawn) registered its activity against Abutilon (% damage) at 100%

Noted for Cc1cnn(-c2cc(F)c(C#N)cc2F)c(=O)c1 : its activity against Abutilon (% damage) reads 100%
